Listed next: entries and their corresponding EC50 (nM), OVCAR 5 cells (cAMP).
# tested system: T1, RXFP1 receptor (UniProt Q9HBX9 1-757, limits assumed)
# T1 sequence (looked up): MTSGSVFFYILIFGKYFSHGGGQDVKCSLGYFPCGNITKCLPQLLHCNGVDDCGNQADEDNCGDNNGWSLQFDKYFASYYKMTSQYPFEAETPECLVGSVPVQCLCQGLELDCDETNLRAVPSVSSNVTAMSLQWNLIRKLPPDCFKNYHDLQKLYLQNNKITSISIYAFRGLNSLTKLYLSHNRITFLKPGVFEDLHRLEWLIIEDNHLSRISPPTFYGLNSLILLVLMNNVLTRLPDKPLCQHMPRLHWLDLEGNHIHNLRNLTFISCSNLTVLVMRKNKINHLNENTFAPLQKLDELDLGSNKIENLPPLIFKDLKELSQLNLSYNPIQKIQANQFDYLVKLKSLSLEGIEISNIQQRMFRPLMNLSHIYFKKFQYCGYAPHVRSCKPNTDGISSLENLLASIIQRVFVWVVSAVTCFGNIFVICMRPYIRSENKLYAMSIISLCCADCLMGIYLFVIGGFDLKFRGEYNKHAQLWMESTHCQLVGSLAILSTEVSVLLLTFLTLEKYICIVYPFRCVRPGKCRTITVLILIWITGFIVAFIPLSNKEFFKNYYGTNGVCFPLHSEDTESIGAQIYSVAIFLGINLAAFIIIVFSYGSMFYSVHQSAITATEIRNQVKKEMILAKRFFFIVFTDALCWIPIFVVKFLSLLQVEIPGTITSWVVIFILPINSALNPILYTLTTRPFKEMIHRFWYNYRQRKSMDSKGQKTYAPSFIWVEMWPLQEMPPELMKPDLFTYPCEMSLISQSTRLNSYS
# assay method text: cell-based or functional assay
*1 amine or outer side, *2 acyl side, *3 side chain or, on linkers, in order; H or OH if unused. Primed or numbered codes have the meaning given here. Side-chain parts run from the residue outwards. [ ]: non-standard residue; d: D form. The star is where a group is joined. γGlu = O=C(O)[C@H](CCC(=O)[*:2])N[*:1]; Pentadecanoyl = CCCCCCCCCCCCCCC(=O)*; Stearoyl = CCCCCCCCCCCCCCCCCC(=O)*; Palmitoyl = CCCCCCCCCCCCCCCC(=O)*; Cit = NC(=O)NCCC[C@H](N)C(=O)O; Nle = CCCC[C@H](N)C(=O)O; PEG2′ = PEG2 spacer unit; Aib = CC(C)(N)C(=O)O
quantity measured: EC50 (nM), OVCAR 5 cells (cAMP)

>  <binder>
LEGREKVRAQIXXEGXSTWSXRKKKX (Ac-L-E-G-R-E-K-V-R-A-Q-I-Aib-Aib-E-G-Nle-S-T-W-S-Aib-R-K-K-K-PEG4-PEG4-K(gE-gE-gE-gE-gE-Stea)-NH2) [peptide of SEQ ID NO: 122]

>  <meas value>
0.1 nM

$$$$
>  <binder>
Ac-LEGREKVRAK(Ac)I[Aib][Aib]EG[Nle]STWS[Aib][Cit]AK(Ac)K([PEG2′-PEG2′-PEG2′-γGlu-γGlu-γGlu-Stearoyl])-NH2 [peptide of SEQ ID NO: 126]

>  <meas value>
9.6 nM

$$$$
>  <binder>
Ac-LEGREKVRAK(Ac)I[Aib][Aib]EG[Nle]STFSXRAK(Ac)[PEG2′][PEG2′][PEG2′][PEG2′][γGlu][γGlu]K([γGlu-γGlu-Pentadecanoyl])-NH2 (not fully specified (some residues); printed as Ac-L-E-G-R-E-K-V-R-A-K(Ac)-I-Aib-Aib-E-G-Nle-S-T-F-S-Mly-R-A-K(Ac)-PEG2-PEG2-PEG2-PEG2-gE-gE-K(gE-gE-Penta)-NH2) [peptide of SEQ ID NO: 168]

>  <meas value>
0.06 nM

$$$$
>  <binder>
Ac-LEGREKVRAK(Ac)I[Aib][Aib]EGQSTYS[Aib]RKK(Ac)K([PEG2′-PEG2′-PEG2′-γGlu-γGlu-γGlu-Palmitoyl])-NH2 [peptide of SEQ ID NO: 44]

>  <meas value>
16.1 nM

$$$$
